Tested on: Staphylococcus aureus
Assay: Minimum concentration required to prevent the growth of multiply resistant (MRSA) and cipro resistant (Cipro-R) Staphylococcus aureus strain A2043
Type: functional
readout: MIC

{"compound": "O=C(O)c1cn(C2CC2)c2cc(N3CCN(C4OC(CO)C(O)C(O)C4O)CC3)c(F)cc2c1=O (stereo in doubt; form 1)", "endpointResult": "> 32 mg/L"}
{"compound": "O=C(O)c1cn(C2CC2)c2cc(N3CCN(CCCO[C@@H]4O[C@@H](CO)[C@@H](O)[C@H](O)[C@@H]4O)CC3)c(F)cc2c1=O", "endpointResult": "> 32 mg/L"}
{"compound": "O=C(O)c1cn(C2CC2)c2cc(N3CCN(CCCO[C@@H]4O[C@@H](CO)[C@H](O)[C@H](O)[C@@H]4O)CC3)c(F)cc2c1=O", "endpointResult": "> 32 mg/L"}
{"compound": "O=C(O)c1cn(C2CC2)c2cc(N3CCN(CCO[C@@H]4O[C@@H](CO)[C@@H](O)[C@H](O)[C@@H]4O)CC3)c(F)cc2c1=O", "endpointResult": "> 32 mg/L"}
{"compound": "O=C(O)c1cn(C2CC2)c2cc(N3CCN(CCO[C@@H]4O[C@@H](CO)[C@H](O)[C@H](O)[C@@H]4O)CC3)c(F)cc2c1=O", "endpointResult": "> 32 mg/L"}
{"compound": "O=C(O)c1cn(C2CC2)c2cc(N3CCN(C4OC(CO)C(O)C(O)C4O)CC3)c(F)cc2c1=O (stereo in doubt; form 3)", "endpointResult": "> 32 mg/L"}

Origin of the recorded values: ChEMBL document CHEMBL1132401
